Source: patent US11542259B2

Exercise: for every item that follows, state its recorded pIC50.
Target: UniProt:P08581
Sequence (P08581 25-1390): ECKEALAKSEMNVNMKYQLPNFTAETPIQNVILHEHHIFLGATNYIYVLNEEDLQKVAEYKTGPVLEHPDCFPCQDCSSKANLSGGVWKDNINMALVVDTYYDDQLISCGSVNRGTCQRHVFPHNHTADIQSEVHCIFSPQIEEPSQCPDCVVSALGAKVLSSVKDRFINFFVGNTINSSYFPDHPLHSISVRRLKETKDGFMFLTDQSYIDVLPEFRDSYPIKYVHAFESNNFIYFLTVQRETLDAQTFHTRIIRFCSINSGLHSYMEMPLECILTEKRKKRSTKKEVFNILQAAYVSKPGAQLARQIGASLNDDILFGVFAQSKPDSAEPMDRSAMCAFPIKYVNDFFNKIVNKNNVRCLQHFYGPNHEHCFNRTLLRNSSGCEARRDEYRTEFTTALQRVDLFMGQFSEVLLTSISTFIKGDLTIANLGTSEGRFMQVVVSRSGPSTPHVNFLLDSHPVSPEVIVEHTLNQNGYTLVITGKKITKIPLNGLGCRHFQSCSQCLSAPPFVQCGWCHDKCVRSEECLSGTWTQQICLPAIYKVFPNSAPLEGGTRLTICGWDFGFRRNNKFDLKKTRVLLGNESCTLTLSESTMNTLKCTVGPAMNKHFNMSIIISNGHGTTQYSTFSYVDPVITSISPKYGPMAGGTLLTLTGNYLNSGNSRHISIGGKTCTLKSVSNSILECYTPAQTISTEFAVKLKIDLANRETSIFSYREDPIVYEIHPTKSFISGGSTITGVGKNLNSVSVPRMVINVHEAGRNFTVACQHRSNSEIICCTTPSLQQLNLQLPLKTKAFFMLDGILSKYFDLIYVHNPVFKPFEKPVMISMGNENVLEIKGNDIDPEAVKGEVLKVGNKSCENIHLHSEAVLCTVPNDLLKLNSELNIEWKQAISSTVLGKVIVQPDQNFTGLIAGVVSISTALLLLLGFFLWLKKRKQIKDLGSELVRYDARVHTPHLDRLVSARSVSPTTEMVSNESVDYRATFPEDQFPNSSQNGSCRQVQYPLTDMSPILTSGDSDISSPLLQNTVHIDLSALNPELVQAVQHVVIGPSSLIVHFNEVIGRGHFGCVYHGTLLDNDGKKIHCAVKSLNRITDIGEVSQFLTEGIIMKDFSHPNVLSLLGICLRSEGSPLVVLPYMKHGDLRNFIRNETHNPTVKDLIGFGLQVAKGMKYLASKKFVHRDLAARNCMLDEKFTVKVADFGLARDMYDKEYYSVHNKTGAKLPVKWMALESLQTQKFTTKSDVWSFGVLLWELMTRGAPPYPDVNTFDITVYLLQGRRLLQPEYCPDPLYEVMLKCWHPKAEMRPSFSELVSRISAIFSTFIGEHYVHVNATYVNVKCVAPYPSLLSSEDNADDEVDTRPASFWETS
Experiment: Met autophosphorylation ELISA in PC-3 cells
Conditions: cellular, HGF stimulated, read-out: c-Met IC50
Procedure: PC-3 prostate cancer cells (ATCC #CRL-1435) were seeded at 4×10^4 cells/well onto 24-well plates (Greiner #662165), in DMEM (Thermo Fisher #11995-040) containing 10% FBS (Thermo Fisher #26140-079), 1% MEM NEAA (Thermo Fisher #11140-050), 1% GlutaMax (Thermo Fisher #35050-061), and 1% Penicillin Streptomycin (Thermo Fisher #15140-122). […] IC50 values were calculated by nonlinear regression analysis using a 4-parameter logistic curve fit in ActivityBase XE (IDBS).
pIC50: −log10 of the molar value.

// below: answered molecules
>>> df
                                   molecule  measured_result
0  COc1cc2nccc(Oc3ccc(NC(=O)C4(C(=O)Nc5ccc(F)cc5)CC4)cc3)c2cc1P(C)(C)=O [Compound 51]     7.00 to 8.00
1  O=C(NOC[C@H](O)CO)c1ccc2c(Oc3ccc(NC(=O)C4(C(=O)Nc5ccc(F)cc5)CC4)cc3)ccnc2c1 [Compound 169]     6.52 to 7.00
2  COc1cc2nccc(Oc3ccc(NC(=O)C4(C(=O)Nc5ccc(F)cc5)CC4)cc3)c2cc1-c1cnoc1 [Compound 183]     7.00 to 8.00
3  CONC(=O)c1cc2c(Oc3ccc(NC(=O)C4(C(=O)Nc5ccc(F)cc5)CC4)cc3)ccnc2cc1OC [Compound 17]     7.00 to 8.00
4  CNc1cc2nccc(Oc3ccc(NC(=O)C4(C(=O)Nc5ccc(F)cc5)CC4)cc3)c2cc1C(=O)OC [Compound 84]     7.00 to 8.00

Provide pIC50 for all items below, preserving their order.
1. NC(=O)c1ccc2nccc(Oc3ccc(NC(=O)C4(C(=O)Nc5ccc(F)cc5)CC4)cc3)c2c1 [Compound 58]
2. Cc1cc2c(Oc3ccc(NC(=O)C4(C(=O)Nc5ccc(F)cc5)CC4)cc3)ccnc2cc1C(N)=O [Compound 142]
3. COc1cc2nccc(Oc3ccc(NC(=O)C4(C(=O)Nc5ccc(F)cc5)CC4)cc3)c2cc1C(N)=O [Compound 7]
4. CO/N=C/c1ccc2c(Oc3ccc(NC(=O)C4(C(=O)Nc5ccc(F)cc5)CC4)cc3)ccnc2c1 [Compound 278]
5. COc1cc2nccc(Oc3ccc(NC(=O)C4(C(=O)Nc5ccc(F)cc5)CC4)cc3)c2cc1-c1cn[nH]c1 [Compound 186]
6. CCNC(=O)c1ccc2c(Oc3ccc(NC(=O)C4(C(=O)Nc5ccc(F)cc5)CC4)cc3)ccnc2c1 [Compound 214]
7. CNC(=O)c1cc2c(Oc3ccc(NC(=O)C4(C(=O)Nc5ccc(F)cc5Cl)CC4)cc3F)ccnc2cc1OC [Compound 264]

Data returned:
["6.52 to 7.00", "7.00 to 8.00", "≥ 8.00", "6.52 to 7.00", "7.00 to 8.00", "7.00 to 8.00", "7.00 to 8.00"]

----------
Please provide measured pIC50 for the entries that follow.
target: KDR (Homo sapiens (Human)); assay: KDR autophosphorylation ELISA in HUVEC cells; conditions: cellular, VEGF165 stimulated
Sequence (P35968 20-1356): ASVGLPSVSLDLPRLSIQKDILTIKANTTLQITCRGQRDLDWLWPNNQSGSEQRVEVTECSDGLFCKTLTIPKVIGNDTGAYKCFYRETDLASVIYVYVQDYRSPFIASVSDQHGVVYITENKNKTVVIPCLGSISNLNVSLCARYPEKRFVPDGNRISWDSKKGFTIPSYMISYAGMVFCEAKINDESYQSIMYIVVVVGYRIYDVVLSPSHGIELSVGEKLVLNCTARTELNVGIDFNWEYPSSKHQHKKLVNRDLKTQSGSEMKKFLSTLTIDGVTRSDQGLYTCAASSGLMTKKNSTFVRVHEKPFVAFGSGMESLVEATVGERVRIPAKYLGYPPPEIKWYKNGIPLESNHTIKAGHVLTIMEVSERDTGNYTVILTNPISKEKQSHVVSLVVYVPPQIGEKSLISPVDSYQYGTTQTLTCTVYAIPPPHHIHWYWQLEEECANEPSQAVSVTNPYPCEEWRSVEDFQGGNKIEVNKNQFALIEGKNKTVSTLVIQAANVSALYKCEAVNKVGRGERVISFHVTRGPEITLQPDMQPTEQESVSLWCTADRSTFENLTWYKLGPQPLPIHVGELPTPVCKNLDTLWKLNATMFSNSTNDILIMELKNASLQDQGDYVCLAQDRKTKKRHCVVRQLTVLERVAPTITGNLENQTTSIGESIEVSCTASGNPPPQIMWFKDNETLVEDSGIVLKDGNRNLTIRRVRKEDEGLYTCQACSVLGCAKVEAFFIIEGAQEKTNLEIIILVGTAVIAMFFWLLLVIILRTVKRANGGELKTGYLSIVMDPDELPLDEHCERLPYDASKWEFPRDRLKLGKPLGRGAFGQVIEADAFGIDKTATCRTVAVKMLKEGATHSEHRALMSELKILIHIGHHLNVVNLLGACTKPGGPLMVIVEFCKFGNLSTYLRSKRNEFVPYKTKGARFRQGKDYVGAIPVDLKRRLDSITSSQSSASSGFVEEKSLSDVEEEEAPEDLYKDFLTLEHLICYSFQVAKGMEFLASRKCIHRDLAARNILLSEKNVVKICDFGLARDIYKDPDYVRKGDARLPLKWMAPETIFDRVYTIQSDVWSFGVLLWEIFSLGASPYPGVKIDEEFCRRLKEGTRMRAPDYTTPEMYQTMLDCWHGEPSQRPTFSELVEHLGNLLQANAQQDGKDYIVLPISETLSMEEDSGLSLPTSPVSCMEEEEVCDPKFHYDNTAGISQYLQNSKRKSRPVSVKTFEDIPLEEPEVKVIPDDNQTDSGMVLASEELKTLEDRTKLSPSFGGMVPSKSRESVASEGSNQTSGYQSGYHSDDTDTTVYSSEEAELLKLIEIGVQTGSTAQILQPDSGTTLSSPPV
pIC50: −log10 of the molar value.

>>> print(df.to_string())
                                   molecule  value_type  measured_result
0  COc1cc2nccc(Oc3ccc(NC(=O)C4(C(=O)Nc5ccc(F)cc5)CC4)cc3)c2cc1-c1ccc[nH]1 [Compound 188]       pIC50     7.00 to 8.00
1  CNC(=O)c1cc2c(Oc3ccc(NC(=O)C4(C(=O)Nc5ccc(F)cc5OC)CC4)cc3F)ccnc2cc1OC [Compound 268]       pIC50           ≥ 8.00
2  CNC(=O)c1cc2c(Oc3ccc(NC(=O)C4(C(=O)Nc5ccc(F)cc5OC(C)C)CC4)cc3F)ccnc2cc1OC [Compound 269]       pIC50     7.00 to 8.00
3  NC(=O)c1ccc2c(Oc3ccc(NC(=O)C4(C(=O)Nc5ccc(F)cc5)CC4)cc3)ccnc2c1 [Compound 164]       pIC50     7.00 to 8.00
4  COc1cc2nccc(Oc3ccc(NC(=O)C4(C(=O)Nc5ccc(F)cc5)CC4)cc3)c2cc1C#N [Compound 37]       pIC50     7.00 to 8.00
5  CNC(=O)c1cc2nccc(Oc3ccc(NC(=O)C4(C(=O)Nc5ccc(F)cc5)CC4)cc3)c2cc1C [Compound 143]       pIC50     6.52 to 7.00

Batch request: pIC50 per item, same order as input.
1. COC(=O)c1cc2c(Oc3ccc(NC(=O)C4(C(=O)Nc5ccc(F)cc5)CC4)cc3)ccnc2cc1N [Compound 90]
2. NC(=O)c1cc2c(Oc3ccc(NC(=O)C4(C(=O)Nc5ccc(F)cc5)CC4)cc3)ccnc2cc1OCCO [Compound 106]
3. COc1cc2nccc(Oc3ccc(NC(=O)C4(C(=O)Nc5ccc(F)cc5)CC4)cc3)c2cc1C(=O)N1CC(O)C1 [Compound 16]
4. CNC(=O)c1cc2c(Oc3ccc(NC(=O)C4(C(=O)Nc5ccc(C(F)(F)F)cc5)CC4)cc3F)ccnc2cc1OC [Compound 273]
5. CNC(=O)c1cc2c(Oc3ccc(NC(=O)C4(C(=O)Nc5ccc(Cl)cc5)CC4)cc3F)ccnc2cc1OC [Compound 274]
6. CNC(=O)c1cc2c(Oc3ccc(NC(=O)C4(C(=O)Nc5ccc(F)cc5C5CC5)CC4)cc3F)ccnc2cc1OC [Compound 270]

Data returned:
7.00 to 8.00
≥ 8.00
6.52 to 7.00
7.00 to 8.00
≥ 8.00
7.00 to 8.00

List reported pIC50 for each of these molecules:
1. Nc1cc2nccc(Oc3ccc(NC(=O)C4(C(=O)Nc5ccc(F)cc5)CC4)cc3)c2cc1C(=O)O [Compound 89]
2. COc1cc2nccc(Oc3ccc(NC(=O)C4(C(=O)Nc5ccc(F)cc5)CC4)cc3)c2cc1-c1c(C)noc1C [Compound 184]

Data returned:
< 6.52
< 6.52
